src = patent US11130780B2

Listing of entries alongside the reported log10(IC50).
# target-or-test-system: HGFA (Homo sapiens)
# Construct: His6 tag (N); seven amino acid spacer and seven amino acid TEV cleavage site (N); Honey Bee melittin signal peptide (N); virus raised in Sf9)
# Sequence (Q04756 373-655): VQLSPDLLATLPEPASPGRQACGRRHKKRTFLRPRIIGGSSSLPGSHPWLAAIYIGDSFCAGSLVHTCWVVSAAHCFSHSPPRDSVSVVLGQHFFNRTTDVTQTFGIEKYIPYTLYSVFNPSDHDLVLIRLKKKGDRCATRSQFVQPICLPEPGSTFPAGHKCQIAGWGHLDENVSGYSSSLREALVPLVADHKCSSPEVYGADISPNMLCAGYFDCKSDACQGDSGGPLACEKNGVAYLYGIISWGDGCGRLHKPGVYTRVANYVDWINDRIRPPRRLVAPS
# test-summary: Chromogenic kinetic enzyme inhibitor assay of HGFA
# protocol-conditions: Table 4.1; chromogenic substrate Pefachrome FVIIa
test-readout: log10(IC50) (log10 of the value in nM)

# compound, test-readout, reported-result
rows = [
    ("CC(=O)N[C@@H](CCCNC(=N)N)C(=O)N[C@@H](CCC(N)=O)C(=O)N[C@@H](CC(C)C)C(=O)N[C@@H](CCCNC(=N)N)C(=O)c1nccs1 [Compound 5e, Ac-RQLR(SEQ ID NO: 6)-kt]", "log10(IC50)", 2.43),
    ("CC(=O)N[C@@H](CCCCN)C(=O)N[C@@H](Cc1c[nH]cn1)C(=O)N[C@@H](CC(C)C)C(=O)N[C@@H](CCCNC(=N)N)C(=O)c1nccs1 [Compound 5a, Ac-KHLR(SEQ ID NO: 2)-kt]", "log10(IC50)", 2.81),
    ("CC(=O)N[C@@H](CO)C(=O)N[C@@H](CCCCN)C(=O)N[C@@H](CC(C)C)C(=O)N[C@@H](CCCNC(=N)N)C(=O)c1nccs1 [Compound 6, Ac-SKLR(SEQ ID NO: 10)-kt]", "log10(IC50)", 2.75),
    ("CC(=O)N[C@@H](Cc1c[nH]c2ccccc12)C(=O)N[C@@H](CCCNC(=N)N)C(=O)N[C@@H](CC(C)C)C(=O)N[C@@H](CCCNC(=N)N)C(=O)c1nccs1 [Compound 5h, Ac-WRLR(SEQ ID NO: 9)-kt]", "log10(IC50)", 2.44),
    ("CC(=O)N[C@@H](Cc1c[nH]c2ccccc12)C(=O)N[C@@H](CCCCN)C(=O)N[C@@H](CC(C)C)C(=O)N[C@H](CCCNC(=N)N)C(=O)c1nccs1", "log10(IC50)", 3.81),
    ("CC(=O)N[C@@H](CO)C(=O)N[C@H](CCCNC(=N)N)C(=O)N[C@@H](CC(C)C)C(=O)N[C@H](CCCNC(=N)N)C(=O)c1nccs1", "log10(IC50)", 4.08),
    ("CC(=O)N[C@@H](CCCCN)C(=O)N[C@@H](Cc1c[nH]cn1)C(=O)N[C@@H](CC(C)C)C(=O)N[C@H](CCCNC(=N)N)C(=O)c1nccs1", "log10(IC50)", 4.04),
    ("CC(=O)N[C@H](C(=O)N[C@@H](CCCCN)C(=O)N[C@@H](CC(C)C)C(=O)N[C@@H](CCCNC(=N)N)C(=O)c1nccs1)[C@@H](C)O [Compound 6f, Ac-TKLR(SEQ ID NO: 16)-kt]", "log10(IC50)", 2.75),
    ("CC(=O)N[C@@H](CCCCN)C(=O)N[C@@H](CCC(N)=O)C(=O)N[C@@H](CC(C)C)C(=O)N[C@H](CCCNC(=N)N)C(=O)c1nccs1", "log10(IC50)", 3.74),
    ("CC(=O)N[C@@H](CCCNC(=N)N)C(=O)N[C@@H](CCC(N)=O)C(=O)N[C@@H](CC(C)C)C(=O)N[C@H](CCCNC(=N)N)C(=O)c1nccs1", "log10(IC50)", 3.49),
]
